- tested_target: T1, Homo sapiens factor Bb protein (human, UniProt P00751 260-764)
- T1 construct: Bought from CompTech (A155); also called complement factor Bb; human factor Bb
- T1 sequence (P00751 260-764 limits assumed): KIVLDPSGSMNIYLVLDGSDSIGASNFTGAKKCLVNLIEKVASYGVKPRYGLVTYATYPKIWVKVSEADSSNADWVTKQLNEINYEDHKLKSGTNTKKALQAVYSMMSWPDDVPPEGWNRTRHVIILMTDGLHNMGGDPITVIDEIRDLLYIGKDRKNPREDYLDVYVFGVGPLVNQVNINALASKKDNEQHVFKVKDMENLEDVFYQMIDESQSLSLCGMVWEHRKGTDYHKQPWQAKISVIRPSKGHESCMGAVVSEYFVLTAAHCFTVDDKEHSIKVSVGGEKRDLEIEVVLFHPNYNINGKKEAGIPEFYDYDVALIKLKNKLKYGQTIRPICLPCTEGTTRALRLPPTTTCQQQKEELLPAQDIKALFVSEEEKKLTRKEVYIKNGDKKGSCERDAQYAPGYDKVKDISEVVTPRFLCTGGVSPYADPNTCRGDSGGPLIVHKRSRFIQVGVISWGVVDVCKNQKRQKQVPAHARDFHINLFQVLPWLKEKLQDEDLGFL
- method_description: SPR single cycle kinetics, IgG on Protein A chip, factor Bb analyte
measured_endpoint: pKd
Conceptually, pKd converts a concentration in mol/L into minus its log10.

Prompt line: Give pKd for VH3/Vκ3 (antibody, V domains shown) VH: EVQLVESGGGLVKPGGSLRLSCAASGFTFSNYAMSWVRQAPGKGLEWVATISNRGSYTYYADSVKGRFTISRDNAKNSLYLQMNSLRAEDTALYYCARERPMDYWGQGTLVTVSS VL: DIQMTQSPSTLSASVGDRVTITCKASQDVGTAVAWYQQKPGQPPKLLIYWASTRHTGVPDRFSGSGSGTDFTLTISSLQAEDFAVYFCHQHSSNPLTFGQGTKLEIK
Response line: 7.83

Prompt line: Give pKd for VH2/Vκ1 (antibody, V domains shown) VH: EVQLVESGGGLVKPGGSLRLSCAASGFTFSNYAMSWVRQAPGKGLEWVATISNRGSYTYYPDSVKGRFTISRDNAKNSLYLQMNSLRAEDTALYYCARERPMDYWGQGTLVTVSS VL: DIVMTQSPSFLSASVGDRVTITCKASQDVGTAVAWYQQKPGQPPKLLIYWASTRHTGVPDRFTGSGSGTDFTLTISSLQSEDFAVYFCHQHSSNPLTFGQGTKLEIK
Response line: 7.68

Prompt line: Give pKd for VH2/Vκ3 (antibody, V domains shown) VH: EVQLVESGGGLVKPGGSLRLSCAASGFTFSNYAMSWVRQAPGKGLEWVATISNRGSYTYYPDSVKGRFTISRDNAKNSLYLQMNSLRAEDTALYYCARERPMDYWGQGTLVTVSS VL: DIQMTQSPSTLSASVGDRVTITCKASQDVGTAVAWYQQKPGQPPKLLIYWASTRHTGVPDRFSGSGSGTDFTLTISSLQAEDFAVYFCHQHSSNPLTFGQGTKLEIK
Response line: 7.91

Prompt line: Give pKd for VH3/Vκ4 (antibody, V domains shown) VH: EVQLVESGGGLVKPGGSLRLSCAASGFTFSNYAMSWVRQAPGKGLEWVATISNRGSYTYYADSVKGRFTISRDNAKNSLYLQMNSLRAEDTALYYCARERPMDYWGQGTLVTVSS VL: DIQMTQSPSTLSASVGDRVTITCRASQDVGTAVAWYQQKPGQPPKLLIYWASTRHTGVPDRFSGSGSGTDFTLTISSLQAEDFAVYYCHQHSSNPLTFGQGTKLEIK
Response line: 7.76

Prompt line: Give pKd for VH2/Vκ5 (antibody, V domains shown) VH: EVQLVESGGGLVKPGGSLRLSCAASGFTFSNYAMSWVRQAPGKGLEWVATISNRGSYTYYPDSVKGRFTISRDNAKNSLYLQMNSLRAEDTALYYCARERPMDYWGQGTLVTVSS VL: DIQMTQSPSTLSASVGDRVTITCRASQDVGTAVAWYQQKPGQPPKLLIYWASTRHTGVPDRFSGSGSGTDFTLTISSLQAEDFATYYCHQHSSNPLTFGQGTKLEIK
Response line: 7.78

Prompt line: Give pKd for VH1/Vκ0 (control) (antibody, V domains shown) VH: EVQLVESGGGLVKPGGSLRLSCAASGFTFSNYAMSWVRQAPGKGLEWVATISNRGSYTYYPDSVKGRFTISRDNAKNSLYLQMSSLRSEDTALYYCARERPMDYWGQGTSVTVSS VL: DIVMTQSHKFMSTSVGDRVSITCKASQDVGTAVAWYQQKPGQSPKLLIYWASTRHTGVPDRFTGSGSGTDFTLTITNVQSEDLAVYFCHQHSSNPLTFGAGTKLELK
Response line: 8.51

Prompt line: Give pKd for VH1/Vκ4 (antibody, V domains shown) VH: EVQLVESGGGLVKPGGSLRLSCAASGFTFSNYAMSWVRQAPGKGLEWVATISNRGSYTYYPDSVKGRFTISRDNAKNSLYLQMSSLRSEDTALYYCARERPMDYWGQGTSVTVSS VL: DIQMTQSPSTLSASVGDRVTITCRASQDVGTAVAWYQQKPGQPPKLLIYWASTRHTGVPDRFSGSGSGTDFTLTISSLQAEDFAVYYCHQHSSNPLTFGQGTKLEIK
Response line: 8.19

Prompt line: Give pKd for VH2/Vκ4 (antibody, V domains shown) VH: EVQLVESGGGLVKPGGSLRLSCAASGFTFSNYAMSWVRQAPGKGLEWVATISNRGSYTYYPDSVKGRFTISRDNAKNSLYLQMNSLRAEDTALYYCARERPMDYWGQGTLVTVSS VL: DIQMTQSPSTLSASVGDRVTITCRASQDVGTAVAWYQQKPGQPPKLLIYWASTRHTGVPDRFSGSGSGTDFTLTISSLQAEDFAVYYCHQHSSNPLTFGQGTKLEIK
Response line: 7.96

Prompt line: Give pKd for VH1/Vκ2 (antibody, V domains shown) VH: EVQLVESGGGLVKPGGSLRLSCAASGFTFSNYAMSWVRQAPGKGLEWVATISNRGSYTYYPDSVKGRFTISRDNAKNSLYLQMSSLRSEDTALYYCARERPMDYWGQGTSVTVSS VL: DIVMTQSPSTLSASVGDRVTITCKASQDVGTAVAWYQQKPGQPPKLLIYWASTRHTGVPDRFTGSGSGTDFTLTISSLQAEDFAVYFCHQHSSNPLTFGQGTKLEIK
Response line: 8.28

Prompt line: Give pKd for VH1/Vκ5 (antibody, V domains shown) VH: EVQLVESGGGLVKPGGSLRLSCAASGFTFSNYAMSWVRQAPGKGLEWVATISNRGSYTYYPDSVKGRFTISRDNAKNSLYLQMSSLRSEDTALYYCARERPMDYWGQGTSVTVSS VL: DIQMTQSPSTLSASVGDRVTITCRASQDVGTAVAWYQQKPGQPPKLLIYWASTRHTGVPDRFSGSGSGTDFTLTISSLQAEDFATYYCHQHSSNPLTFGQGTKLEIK
Response line: 8.05
